B1: scFv; the commonest letter at each place (parent)
chain 1: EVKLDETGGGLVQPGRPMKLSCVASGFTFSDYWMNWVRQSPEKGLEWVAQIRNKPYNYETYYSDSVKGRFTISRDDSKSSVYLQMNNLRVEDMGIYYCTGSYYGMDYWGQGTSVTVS
chain 2: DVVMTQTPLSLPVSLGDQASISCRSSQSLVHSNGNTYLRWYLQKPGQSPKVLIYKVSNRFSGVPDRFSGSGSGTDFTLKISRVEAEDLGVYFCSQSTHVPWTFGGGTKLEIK

- Variants of: B1
- assay procedure: yeast surface expression (ratio to wild type); higher = more expressed
- test settings: format: scFv 4-4-20, heavy + light
Classification scheme (yeast surface expression): low: < 0.5; middle: ≥ 0.5 and < 0.8; high: ≥ 0.8

{"columns": ["mutation notation", "class assignment"],
 "data": [
  ["chain 1 G100V Y107N G109P", "low"],
  ["chain 1 Y32W W36A", "low"],
  ["chain 1 W33M", "high"],
  ["chain 1 W108E G109P", "low"],
  ["chain 1 G109Y", "low"],
  ["chain 1 G100E", "low"],
  ["chain 1 T28A Y32T", "high"],
  ["chain 1 G100V D106Q", "middle"],
  ["chain 1 F29N S30Q N35K", "high"],
  ["chain 1 M105I Y107Q", "high"],
  ["chain 1 T28I", "high"],
  ["chain 1 D31V M34C", "low"],
  ["chain 1 S30Q W33S", "high"],
  ["chain 1 G100W Y107R", "low"],
  ["chain 1 T28S M34R", "high"],
  ["chain 1 W36C", "middle"],
  ["chain 1 S30I V37C", "low"],
  ["chain 1 F29E D31R", "middle"],
  ["chain 1 M34G V37R", "high"],
  ["chain 1 T28M Y32W", "high"],
  ["chain 1 T28I D31A", "middle"],
  ["chain 1 N35F W36Q", "low"],
  ["chain 1 D106N Y107F", "middle"],
  ["chain 1 F29W W36Y", "middle"],
  ["chain 1 T28I S30M", "middle"],
  ["chain 1 S30G", "high"],
  ["chain 1 T28N Y32G", "high"],
  ["chain 1 D31S W36I", "middle"],
  ["chain 1 G104D G109L", "low"],
  ["chain 1 G104E M105V", "high"],
  ["chain 1 D31I W36E", "middle"],
  ["chain 1 T28S S30I", "middle"],
  ["chain 1 Y103E G109I", "low"],
  ["chain 1 Y107F", "high"],
  ["chain 1 M105K Y107T", "middle"],
  ["chain 1 S30H D31I", "middle"],
  ["chain 1 G104I W108H", "low"],
  ["chain 1 G100W Y102N D106L", "low"],
  ["chain 1 T28P S30G", "high"],
  ["chain 1 Y107M", "high"],
  ["chain 1 T28V D31M", "middle"],
  ["chain 1 G100N G104W", "low"],
  ["chain 1 W33V N35Q", "middle"],
  ["chain 1 G100F Y107I", "high"],
  ["chain 1 Y107A", "high"],
  ["chain 1 G100L W108Q", "low"],
  ["chain 1 W36F", "high"],
  ["chain 1 T28K D31I", "middle"],
  ["chain 1 Y102P", "middle"],
  ["chain 1 F29P W33G", "high"],
  ["chain 1 Y107G", "middle"],
  ["chain 1 G100W Y103S", "low"],
  ["chain 1 T28I D31F", "middle"],
  ["chain 1 Y107D G109R", "low"],
  ["chain 1 F29R D31K", "low"],
  ["chain 1 D106G Y107S", "low"],
  ["chain 1 Y102S G109S", "high"],
  ["chain 1 W36G", "middle"],
  ["chain 1 M105F W108L", "low"],
  ["chain 1 S30E M34T W36T", "low"],
  ["chain 1 D106G Y107W", "low"],
  ["chain 1 F29I Y32K", "high"],
  ["chain 1 G100M G104C", "middle"],
  ["chain 1 T28P W36P", "low"]
]}
